The following molecules are shown together with reported pIC50 values.
# System: Interstitial collagenase (Homo sapiens)
# Sequence (P03956 whole entry): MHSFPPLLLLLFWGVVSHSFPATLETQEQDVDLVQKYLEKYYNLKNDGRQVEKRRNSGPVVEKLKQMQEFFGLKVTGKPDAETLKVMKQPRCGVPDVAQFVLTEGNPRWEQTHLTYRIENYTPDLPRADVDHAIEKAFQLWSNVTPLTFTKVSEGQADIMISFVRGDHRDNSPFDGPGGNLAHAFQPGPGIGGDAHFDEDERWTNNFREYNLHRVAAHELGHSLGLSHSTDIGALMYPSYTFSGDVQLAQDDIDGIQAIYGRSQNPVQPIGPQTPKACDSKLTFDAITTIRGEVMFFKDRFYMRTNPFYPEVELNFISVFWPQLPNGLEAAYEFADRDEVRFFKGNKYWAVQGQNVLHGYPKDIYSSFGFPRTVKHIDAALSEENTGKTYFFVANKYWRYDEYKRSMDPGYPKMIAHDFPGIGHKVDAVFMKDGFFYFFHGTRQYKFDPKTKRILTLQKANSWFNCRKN
In simple prose, pIC50 is minus the logarithm base ten of a concentration in moles per litre.

**Q:** So what pIC50 did CN[C@H](CS(=O)(=O)c1ccc(Oc2ccccc2)cc1)C(=O)NO get with Interstitial collagenase (Homo sapiens)?
**A:** 6.36

Let us move to another entry and its pIC50.
**Q:** GET /values?readout=pIC50&system=Interstitial collagenase (Homo sapiens)&item= COc1ccc(S(=O)(=O)CC(NC(=O)OC(C)(C)C)C(=O)NO)cc1 (stereo not drawn)
**A:** 5.82

* * *

# System: Matrix metalloproteinase (1 and 13) (Homo sapiens) (UniProt P45452+P03956)
# Assay Protocol: Selectivity for Matrix metalloprotease-1 over Matrix metalloprotease-13
# Format: protein assay
# reported Selectivity; entries follow
Field format: numeric only.

**Q:** Report Selectivity for CC(=O)N(C)[C@H](CS(=O)(=O)c1ccc(Oc2ccccc2)cc1)C(=O)NO please.
**A:** 450

**Q:** What measured Selectivity goes with CC(=O)N[C@H](CS(=O)(=O)c1ccc(Sc2ccccc2)cc1)C(=O)NO ?
**A:** 3400

**Q:** I'd like to know its Selectivity. The compound in question is CN(Cc1ccccc1)[C@H](CS(=O)(=O)c1ccc(Oc2ccccc2)cc1)C(=O)NO
**A:** 2400

**Q:** What Selectivity value was documented for this compound, COc1ccc(S(=O)(=O)CC(NC(C)=O)C(=O)NO)cc1 (stereo not drawn) ?
**A:** 20

**Q:** Selectivity for O=C(N[C@H](CS(=O)(=O)c1ccc(Sc2ccccc2)cc1)C(=O)NO)OCc1ccccc1 ?
**A:** 20000

**Q:** I would be grateful if you could share the reported Selectivity for O=C(NC(CS(=O)(=O)c1ccc(Oc2ccccc2)cc1)C(=O)NO)OCc1ccccc1 (stereo not drawn) .
**A:** 1300

**Q:** # Selectivity lookup, item Cc1ccc(S(=O)(=O)NC(CS(=O)(=O)c2ccc(Sc3ccccc3)cc2)C(=O)NO)cc1 (stereo not drawn)
**A:** 1500

**Q:** Recorded Selectivity for CC(=O)NC(CS(=O)(=O)c1ccc(Oc2ccccc2)cc1)C(=O)NO (stereo not drawn) , please?
**A:** 700

**Q:** Could you tell me which Selectivity is on file for Cc1ccc(S(=O)(=O)NC(CS(=O)(=O)c2ccc(Oc3ccccc3)cc2)C(=O)NO)cc1 (stereo not drawn) ?
**A:** 670

**Q:** Could you tell me which Selectivity is on file for CN(C(=O)OC(C)(C)C)[C@H](CS(=O)(=O)c1ccc(Oc2ccccc2)cc1)C(=O)NO ?
**A:** 5300

**Q:** Report Selectivity for NC(CS(=O)(=O)c1ccc(Sc2ccccc2)cc1)C(=O)NO (stereo not drawn) please.
**A:** 420

Source of measurements: ChEMBL document CHEMBL1134425
